Tested on: HIV
Assay: MT4 assay: antiviral HIV activity in MT-4 cells
Assay type: cell-based
Details: Human immunodeficiency virus 1, MT4, 96 h, read-out: HIV MT4 Assay IC50 (μM), HTLV-1 transformed cell line MT-4; read-out 96 hours later with cell titer glo; 10 point dose response
Exercise: state measured IC50 for each of the compounds provided.
One number for each entry, in µM.

| compound | IC50 [µM] |
| --- | --- |
| Cc1nc2c(ccn2Cc2ccc(F)c(F)c2)c(C2=CCC(C)(C)CC2)c1[C@H](OC(C)(C)C)C(=O)O | 0.08 |

List the reported IC50 of each compound below.
1. Cc1nc2c(ccn2Cc2cc(F)ccc2F)c(-c2ccc3c(c2)CCCO3)c1[C@H](OC(C)(C)C)C(=O)O
2. Cc1nc2c(ccn2Cc2ccc(F)cc2)c(-c2ccc(Cl)cc2F)c1C(OC(C)(C)C)C(=O)O (stereo not shown)

### Response
1: 0.08; 2: 0.48

###

Test system: HIV
Test: MT4 assay: antiviral HIV activity in MT-4 cells
Assay type: cell-based
Conditions: Human immunodeficiency virus 1, MT4, 96 h, read-out: HIV MT4 Assay IC50 (μM), HTLV-1 transformed cell line MT-4; read-out 96 hours later with cell titer glo; 10 point dose response
quantity_name: log10 of IC50 (log10 of the value in µM)
Hello, just confirming the data are log10 of IC50 with units of µM.

The cases that follow already have their log10 of IC50 on record.
| compound | log10 of IC50 |
| --- | --- |
| Cc1nc2c(ccn2Cc2ccc(F)c(F)c2)c(-c2ccc3c(c2C)CCCO3)c1[C@H](OC(C)(C)C)C(=O)O (atropisomer, axis not shown; (M)) [Example 87] | -2.30 |
| Cc1nc2c(ccn2Cc2ccc(F)c(F)c2)c(-c2cc(Cl)c3c(c2C)CCCO3)c1[C@H](OC(C)(C)C)C(=O)O (atropisomer, axis not shown; (M)) [Example 95] | -1.40 |
| Cc1nc2c(ccn2Cc2ccc(F)c(F)c2)c(-c2ccc3c(c2)CCO3)c1[C@H](OC(C)(C)C)C(=O)O [Example 112] | -1.96 |

List the reported log10 of IC50 of each compound below.
1. Cc1ccc(-c2c(C(OC(C)(C)C)C(=O)O)c(C)nc3c2ccn3Cc2ccc(Cl)cc2F)cc1 (stereo not drawn) [Example 23]
2. Cc1ccc(-c2c(C(OC(C)(C)C)C(=O)O)c(C)nc3c2ccn3C2CCCCC2)cc1 (stereo not drawn) [Example 73]
3. Cc1ccc(-c2c(C(OC(C)(C)C)C(=O)O)c(C)nc3c2ccn3Cc2ccc(F)c(C)c2)cc1 (stereo not drawn) [Example 25]

### Response
1: -0.57; 2: 0.12; 3: -0.85

###

Exercise: state measured log10 of IC50 for each of the compounds provided.
Test system: HIV
Assay: MT4 assay: antiviral HIV activity in MT-4 cells
Format: cell-based
Settings: Human immunodeficiency virus 1, MT4, 96 h, read-out: HIV MT4 Assay IC50 (μM), HTLV-1 transformed cell line MT-4; read-out 96 hours later with cell titer glo; 10 point dose response
Hello, just confirming the data are log10 of IC50 with units of µM.

| compound | log10 of IC50 |
| --- | --- |
| Cc1ccc(-c2c(C(OC(C)(C)C)C(=O)O)c(C)nc3c2ccn3Cc2ccc(F)cc2Cl)cc1 (stereo not shown) | -0.37 |
| Cc1nc2c(ccn2Cc2ccc(F)c(F)c2)c(-c2ccc(Cl)cc2)c1[C@H](OC(C)(C)C)C(=O)O | -1.05 |
| Cc1nc2c(ccn2Cc2cccc(OC(F)(F)F)c2)c(-c2ccc3c(c2)CCCO3)c1C(OC(C)(C)C)C(=O)O (stereo not shown) | -0.74 |
| Cc1ccc(-c2c(C(OC(C)(C)C)C(=O)O)c(C)nc3c2ccn3C2CCC(C)CC2)cc1 (stereo not shown) | 0.37 |

List the reported log10 of IC50 of each compound below.
1. Cc1nc2c(ccn2Cc2cccc(F)c2F)c(-c2ccc3c(c2)CCCO3)c1[C@H](OC(C)(C)C)C(=O)O
2. Cc1nc2c(ccn2CC2CCCCC2)c(-c2ccc3c(c2)CCCO3)c1C(OC(C)(C)C)C(=O)O (stereo not shown)
3. Cc1nc2c(ccn2CC2CCC2)c(-c2ccc3c(c2)CCCO3)c1C(OC(C)(C)C)C(=O)O (stereo not shown)
4. Cc1nc2c(ccn2Cc2cccc(F)c2F)c(-c2cc(Cl)c3c(c2C)CCCO3)c1[C@H](OC(C)(C)C)C(=O)O (atropisomer, axis not shown; (M))
5. Cc1nc2c(ccn2Cc2cc(F)ccc2F)c(-c2ccc3c(c2)CCCO3)c1C(OC(C)(C)C)C(=O)O (stereo not shown)

### Response
[-1.57, -0.23, -0.14, -0.74, -1.02]
